test system: NCI/ADR-RES ovarian; experiment: NCI tumour cell line growth inhibition, 48 h; in the data active means GI50 below about 0.43 µM; inactive means the rest
Allowed answers: Yes for active, No for inactive

>  <smiles-string>
CN1C(=O)c2cc([N+](=O)[O-])ccc2[C@H]2C(=O)c3cc4c(cc3[C@H]21)OCO4

>  <target>
NCI/ADR-RES ovarian

>  <answer-label>
Yes

$$$$
>  <smiles-string>
CC(C)(C)c1cn2cccc(C(=O)N3CCN(CC(=O)Nc4ccc(Cl)cc4C(=O)c4ccccc4Cl)CC3)c2n1

>  <target>
NCI/ADR-RES ovarian

>  <answer-label>
No

$$$$
>  <smiles-string>
CCSc1nc(N2CCCCC2)c2cn[nH]c2n1

>  <target>
NCI/ADR-RES ovarian

>  <answer-label>
No

$$$$
>  <smiles-string>
Cn1ccnc1C(=O)/C=C/c1ccc(C(=O)Nc2ccccc2O)cc1

>  <target>
NCI/ADR-RES ovarian

>  <answer-label>
No

$$$$

Could you now look at the following molecule, please?
Please let me know the test result on file for `O=C1Nc2ccccc2/C1=C/c1cn(C(=O)c2c(Cl)cccc2Cl)c2ccccc12` . No

* * *

system: UO-31 renal; test: NCI tumour cell line growth inhibition, 48 h
readout-type: TGI

Illustrative cases are given below, each with its answer.
>  <compound>
C/C1=C\CC[C@@]2(C)O[C@@H]2C[C@@H]2[C@H](C/C(C)=C/CC1)OC(=O)C21CCN=N1 (stereo partly specified)

>  <TGI>
> 100 µM

$$$$
>  <compound>
CN(C)CS/C(N)=N\C(O)C(Cl)(Cl)Cl (stereo unspecified)

>  <TGI>
> 100 µM

$$$$
>  <compound>
CC(=O)N1CC[N+](C)(CCCCN2c3ccccc3Sc3cc(N=[N+]=[N-])ccc32)CC1

>  <TGI>
> 100 µM

$$$$
>  <compound>
COc1ccc(N(C)c2nc(Cl)nc3ccn(C)c23)cc1

>  <TGI>
> 100 µM

$$$$
>  <compound>
COc1ccccc1-c1nc2ccccc2c(=O)[nH]1

>  <TGI>
> 100 µM

$$$$

Alright, here's another compound for you.
Please report TGI for the following compound: `COc1cc(-c2c3c([nH]c(=O)c2C#N)-c2cc([N+](=O)[O-])ccc2CCC3)cc(OC)c1OC` 75.1 µM

* * *

test system: NCI-H23 lung; test: NCI tumour cell line growth inhibition, 48 h
readout-type: TGI

Illustrative cases are given below, each with its answer.
>  <molecule>
O=NNc1cnccn1

>  <target>
NCI-H23 lung

>  <TGI>
> 1250 µM

$$$$
>  <molecule>
S=P1(c2ccccc2)Nc2ccc(Cl)cc2N1 (configuration not stated)

>  <target>
NCI-H23 lung

>  <TGI>
> 100 µM

$$$$
>  <molecule>
CC1CC(C)/C(=N/NC(N)=O)C(C(O)CC2CCC(=O)NC2=O)C1 (configuration not stated)

>  <target>
NCI-H23 lung

>  <TGI>
> 100 µM

$$$$
>  <molecule>
COc1ccc2c[n+](C)c3c4cc(OC)c(OC)cc4ccc3c2c1

>  <target>
NCI-H23 lung

>  <TGI>
13.6 µM

$$$$
>  <molecule>
Clc1ccc2c(c1)CC1C[N+]3=C(CCCC3)C1=C2 (configuration not stated)

>  <target>
NCI-H23 lung

>  <TGI>
> 100 µM

$$$$
>  <molecule>
CN(C)CS/C(N)=N\C(O)C(Cl)(Cl)Cl (configuration not stated)

>  <target>
NCI-H23 lung

>  <TGI>
> 100 µM

$$$$

For every listed record, write down its TGI.
1. O=C(Nc1nncs1)NS(=O)(=O)n1cnc2ccccc21
2. COc1ccc(/C=C(\C(=O)OCC(C)C)c2ccc(OC)c(OC)c2)cc1OC
3. CCCC(=O)Nc1cc([N+](=O)[O-])c([N+](=O)[O-])cc1OC
4. CCN(CC)c1nc(N(C)C)c2ccc(OC)cc2n1
5. Cc1cc(C)nc(NS(=O)(=O)c2ccc(NNC(=O)c3cccc4c(NNc5ccc(S(=O)(=O)Nc6nc(C)cc(C)n6)cc5)c5ccccc5nc34)cc2)n1
6. COc1ccc2c(c1)O[C@H]1c3ccc(O)cc3OC[C@@H]21
7. O=C1/C(=C/c2ccc(Cl)cc2)N=C(c2ccccc2)N1C1Nc2cc3c(cc2S1)NC(N1C(=O)/C(=C/c2ccc(Cl)cc2)N=C1c1ccccc1)S3 (configuration not stated)
8. CCN(CC)CCC(=O)N1CCc2c([nH]c3ccccc23)C1c1cccnc1 (configuration not stated)

["> 100 µM", "> 100 µM", "34.4 µM", "> 100 µM", "51.6 µM", "86.5 µM", "> 100 µM", "> 100 µM"]

For every listed record, write down its TGI.
1. COc1cc(S(=O)(=O)Nc2ccc(-c3csc(N4C(=O)C(C)SC4c4ccccc4O)n3)cc2)ccc1Cl (configuration not stated)
2. Cn1c(=O)c2c(ncn2CCSS(=O)(=O)O)n(C)c1=O
3. Cc1cc(N(CCC#N)CCC#N)ccc1/C(N=Nc1ccccc1)=N\NC(=O)c1ccccc1
4. N#CCC12CC=CCC1=C(O)C(=O)c1ccc(O)cc12 (configuration not stated)
5. C[N+](C)(C)Cc1c(CC#N)[nH]c2ccccc12
6. C/C1=C\CC[C@@]2(C)O[C@@H]2C[C@@H]2[C@H](C/C(C)=C/CC1)OC(=O)C21CCN=N1 (some centres not stated)
7. CCC[CH2][Sn]1([CH2]CCC)[O]C(=O)c2cccc(OC)c2[O]1

> 100 µM
> 100 µM
> 100 µM
> 100 µM
> 100 µM
> 100 µM
1.25 µM

Please report TGI for the following molecule: `O=c1oc2cc(O)ccc2cc1-c1nc2ccccc2s1` 61.2 µM

* * *

tested on: COLO 205 colon; test: NCI tumour cell line growth inhibition, 48 h
readout-type: TGI (µM)
Numbers only, in µM.

For every listed record, write down its TGI.
1. COC(=O)C1=COC2OC3/C(=C\c4ccc(O)c(OC)c4)C(=O)OC34C=CC1C24 (stereo not given)
2. COc1ccc(N=Nc2c(C)c(C#N)c(=S)n(C3OC(COC(C)=O)C(OC(C)=O)C(OC(C)=O)C3OC(C)=O)c2-c2ccccc2)cc1 (stereo not given)
3. N#Cc1c(NC(=O)c2cccc3ccccc23)sc2c1CCCC2
4. O=c1[nH]cc(N(CCCl)CCCl)c(=O)[nH]1
5. O=C1Nc2ccccc2/C1=C/c1ccccc1
6. CCSc1nc(N2CCCCC2)c2cn[nH]c2n1

[43.8, 22.9, 0.193, 157, 30.9, 56.8]

* * *

tested on: NCI-H460 lung; experiment: NCI tumour cell line growth inhibition, 48 h
readout-type: TGI (µM)
Answers are plain numbers, in µM.

Illustrative cases are given below, each with its answer.
>  <compound>
CC(C)(C)c1cn2cccc(C(=O)N3CCN(CC(=O)Nc4ccc(Cl)cc4C(=O)c4ccccc4Cl)CC3)c2n1

>  <unit-info>
µM

>  <TGI>
23

$$$$
>  <compound>
Nc1ccc(C(=O)NN2C(=O)C(Cl)C2c2ccc([N+](=O)[O-])cc2)cc1 (stereo unspecified)

>  <unit-info>
µM

>  <TGI>
22.1

$$$$
>  <compound>
CCN(CC)c1nc(N(C)C)c2ccc(OC)cc2n1

>  <unit-info>
µM

>  <TGI>
26.5

$$$$
>  <compound>
CC(=O)[O-].[Ni].c1ccc(/C(=N\Nc2ccccn2)c2ccccn2)cc1

>  <unit-info>
µM

>  <TGI>
28

$$$$
>  <compound>
Cc1ccc(-c2nc3c(C(=O)NCCN(C)C)cccc3[nH]2)cc1

>  <unit-info>
µM

>  <TGI>
21.1

$$$$
>  <compound>
Cc1ccc(/C=C/C(=O)c2ccc(N)cc2)c(C)c1

>  <unit-info>
µM

>  <TGI>
33.8

$$$$
>  <compound>
c1ccc2c(-c3nc4ccccc4[nH]3)cccc2c1

>  <unit-info>
µM

>  <TGI>
15.8

$$$$
>  <compound>
CN(C)CC(C)(C)C(/C=C/c1ccccc1)=N\Nc1ccccc1

>  <unit-info>
µM

>  <TGI>
17.8

$$$$

For every listed record, write down its TGI.
1. COCC(=O)OC1CCn2c1nc1c2C(=O)C(C)=C(NC(C)=O)C1=N (stereo unspecified)
2. Cn1ccnc1C(=O)/C=C/c1ccc(C(=O)Nc2ccccc2O)cc1

31
5.6

* * *

Assign TGI to each entry below.
test system: NCI-H23 lung; assay: NCI tumour cell line growth inhibition, 48 h
Numbers only, in µM.

Illustrative cases are given below, each with its answer.
>  <molecule>
Cn1ccnc1C(=O)/C=C/c1ccc(C(=O)Nc2ccccc2O)cc1

>  <result-value>
9.67

$$$$
>  <molecule>
CC1C2(C)OC(=N)C(C#N)(C(c3ccco3)O2)C1(C#N)C#N (configuration not stated)

>  <result-value>
93.6

$$$$
>  <molecule>
COc1ccc(NC(=O)COC(=O)c2cccc3c(=O)c4ccccc4[nH]c23)cc1

>  <result-value>
32

$$$$

For every listed record, write down its TGI.
1. CCCN1CN(c2ccccc2)C2(CCN(CCCC(=O)c3ccc(F)cc3)CC2)C1=O
2. CC(=O)Nc1ccc(S(=O)(=O)[N-]C2C(=O)c3ccccc3C(=O)C2[n+]2ccccc2)cc1 (configuration not stated)
3. O=C1NC(N/N=C/c2ccccc2)=N/C1=C\c1cccs1

17.3
21.5
40.7

For every listed record, write down its TGI.
1. COc1cc(C(=O)/C=C/c2c(-c3ccc(F)cc3)nc3ncccn23)cc(OC)c1OC
2. Cc1nc2c(n1CCC(C)C)C(=O)c1ccccc1C2=O
3. CCCC(=O)/C=C/S/C=C/C(=O)CCC

[5.79, 44.9, 7.7]
